Biological target: T1, purified human activated C1s protein, two-chain form (Homo sapiens, UniProt P09871 16-688)
T1 construct: Also used here for C1s acting in human serum assays; also called human C1s; active C1s
T1 sequence: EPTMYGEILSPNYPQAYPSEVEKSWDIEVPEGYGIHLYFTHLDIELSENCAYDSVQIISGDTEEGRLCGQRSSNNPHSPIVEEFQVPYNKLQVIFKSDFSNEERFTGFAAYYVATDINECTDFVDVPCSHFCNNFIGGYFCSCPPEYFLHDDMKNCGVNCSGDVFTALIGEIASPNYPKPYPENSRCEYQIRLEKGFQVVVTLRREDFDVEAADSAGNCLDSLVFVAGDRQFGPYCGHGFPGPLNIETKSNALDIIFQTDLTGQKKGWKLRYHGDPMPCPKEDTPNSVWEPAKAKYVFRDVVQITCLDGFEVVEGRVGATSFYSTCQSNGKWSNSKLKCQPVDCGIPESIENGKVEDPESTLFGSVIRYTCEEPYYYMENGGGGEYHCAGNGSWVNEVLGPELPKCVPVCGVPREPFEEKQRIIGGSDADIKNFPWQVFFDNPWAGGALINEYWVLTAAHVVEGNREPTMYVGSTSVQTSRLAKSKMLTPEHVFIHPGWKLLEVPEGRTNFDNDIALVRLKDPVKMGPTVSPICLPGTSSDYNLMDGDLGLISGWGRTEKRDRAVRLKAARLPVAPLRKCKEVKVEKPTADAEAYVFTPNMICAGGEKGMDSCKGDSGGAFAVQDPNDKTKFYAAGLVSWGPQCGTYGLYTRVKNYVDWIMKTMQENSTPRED
Assay: kinetic binding measurement, method not stated; Table 9, activated C1s
Reported Property: pKd
Keep it numeric: pKd is minus log10 of the concentration in mol/L.

The recorded pKd for entry VH2/Vk1 (antibody, V domains shown, member of group m7; also called VH2/Vκ1; VH variant 2 + Vk variant 1) VH: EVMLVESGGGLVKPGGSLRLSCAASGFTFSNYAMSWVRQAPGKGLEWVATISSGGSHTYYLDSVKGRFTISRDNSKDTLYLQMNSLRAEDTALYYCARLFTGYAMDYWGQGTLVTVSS VL: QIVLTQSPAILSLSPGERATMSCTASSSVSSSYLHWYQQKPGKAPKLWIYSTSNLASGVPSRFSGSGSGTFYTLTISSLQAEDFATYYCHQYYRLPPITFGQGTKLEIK equals 9.59

Quick note, pKd for VH2/Vk3 (antibody, V domains shown, member of group m7; also called VH2/Vκ3; VH variant 2 + Vk variant 3) VH: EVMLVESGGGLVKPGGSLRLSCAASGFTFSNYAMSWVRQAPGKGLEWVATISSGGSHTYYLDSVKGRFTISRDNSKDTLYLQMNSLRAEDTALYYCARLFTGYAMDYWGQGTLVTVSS VL: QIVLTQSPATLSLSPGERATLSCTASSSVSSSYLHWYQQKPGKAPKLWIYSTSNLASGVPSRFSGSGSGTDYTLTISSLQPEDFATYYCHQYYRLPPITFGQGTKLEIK landed at 9.53

Summary for this binder, VH4/Vk3 (antibody, V domains shown, member of group m7; also called VH4/Vκ3; VH variant 4 + Vk variant 3) VH: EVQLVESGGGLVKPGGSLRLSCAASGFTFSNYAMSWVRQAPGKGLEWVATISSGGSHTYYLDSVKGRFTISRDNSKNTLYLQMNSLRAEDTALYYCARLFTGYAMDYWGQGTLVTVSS VL: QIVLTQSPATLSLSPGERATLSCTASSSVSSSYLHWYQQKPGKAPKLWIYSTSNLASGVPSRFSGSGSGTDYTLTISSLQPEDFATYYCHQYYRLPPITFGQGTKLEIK : pKd is 9.53
